Hey, just so you know, these numbers are from ChEMBL document CHEMBL6078678.

Please go through the items and note down their CC50 at 72 h.
experiment: Cytotoxicity against human HepG2 cells assessed as reduction in cell viability incubated for 72 hrs by neutral red uptake method; type: toxicity, cell-based; conditions: HepG2 cells
Response body: numeric value in µM, unit text excluded.

Note to self: CC50 at 72 h recorded for `CCc1ccc(NCCCOc2cc(CC)nc3ccc(Br)cc23)cc1` was 8.3

Note to self: CC50 at 72 h recorded for `COc1ccc2nc(C)cc(OCCCNc3ccc(Br)cc3)c2c1` was 16.8

Note to self: CC50 at 72 h recorded for `COc1ccc2nc(C)cc(OCCCNc3ccc(I)cc3)c2c1` was 12.8

---

test: Half-life in male CF1 mouse at 300 mg/kg, po administered via gavage and measured after 8 hrs by UHPLC-DAD analysis; assay type: ADME, organism-based; conditions: in vivo
ENDPOINT LABEL: half-life
Remember to quote the unit after the number.

Note to self: half-life recorded for `CCc1ccc(NCCCOc2cc(C)nc3ccc(Br)cc23)cc1` was 4.3 h

---

experiment: Permeability of compound at pH 7.4 at 10 uM measured after 5 hrs by PAMPA assay; type: ADME; conditions: read-out: permeability
ENDPOINT LABEL: Papp at 5 h, 10 µM (×10⁻⁶ cm/s)
Response body: numeric value in ×10⁻⁶ cm/s, unit text excluded.

Note to self: Papp at 5 h, 10 µM recorded for `CCc1ccc(NCCCOc2cc(C)nc3ccc(Br)cc23)cc1` was 0.2

---

test: Drug concentration in male CF1 mouse plasma at 300 mg/kg, po administered via gavage and measured after 1 hrs by UHPLC-DAD analysis; format: ADME, organism-based
ENDPOINT LABEL: concentration at 1 h (µM)
Response body: numeric value in µM, unit text excluded.

Note to self: concentration at 1 h recorded for `CCc1ccc(NCCCOc2cc(C)nc3ccc(Br)cc23)cc1` was 32.1

---

assay: Metabolic stability in rat liver microsomes assessed as intrinsic clearance at 2 uM measured upto 30 mins in presence of NADPH by HPLC-MS/MS analysis; type: ADME, Microsome; settings: read-out: CLH
ENDPOINT LABEL: CLint scaled at 2 µM (mL/min/kg)
Response body: numeric value in mL/min/kg, unit text excluded.

Note to self: CLint scaled at 2 µM recorded for `CCc1ccc(NCCCOc2cc(C)nc3ccc(Br)cc23)cc1` was 58

---

Please go through the items and note down their solubility at 4 h.
test: Aqueous solubility of compound in HCl at pH 1.2 incubated for 4 hrs by UHPLC-DAD analysis; format: physicochemical

Note to self: solubility at 4 h recorded for `CCc1ccc(NCCCOc2cc(C)nc3ccc(OC)cc23)cc1` was 2650 µM

Note to self: solubility at 4 h recorded for `COc1ccc2nc(C)cc(OCCCNc3ccc(I)cc3)c2c1` was > 2230 µM

Note to self: solubility at 4 h recorded for `Cc1cc(OCCCNc2ccc(Cl)cc2)c2cc(Br)ccc2n1` was > 2470 µM

Note to self: solubility at 4 h recorded for `CCc1ccc(NCCCOc2cc(C)nc3ccc(Br)cc23)cc1` was > 2500 µM

Note to self: solubility at 4 h recorded for `CCc1ccc(NCCCOc2cc(C)nc3ccc(Cl)cc23)cc1` was 200 µM

Note to self: solubility at 4 h recorded for `COc1ccc2nc(C)cc(OCCCNc3ccc(Br)cc3)c2c1` was > 2500 µM

---

test: Drug concentration in male CF1 mouse plasma at 300 mg/kg, po administered via gavage and measured after 4 hrs by UHPLC-DAD analysis; type: ADME, organism-based
ENDPOINT LABEL: concentration at 4 h (µM)
Response body: numeric value in µM, unit text excluded.

Note to self: concentration at 4 h recorded for `CCc1ccc(NCCCOc2cc(C)nc3ccc(Br)cc23)cc1` was 13.5

---

Please go through the items and note down their CC50 at 72 h.
experiment: Cytotoxicity against human HepG2 cells assessed as reduction in cell viability incubated for 72 hrs by MTT assay; type: toxicity, cell-based; settings: HepG2 cells
Response body: numeric value in µM, unit text excluded.

Note to self: CC50 at 72 h recorded for `COc1ccc2nc(C)cc(OCCCNc3ccc(I)cc3)c2c1` was 10.6

Note to self: CC50 at 72 h recorded for `COc1ccc2nc(C)cc(OCCCNc3ccc(Br)cc3)c2c1` was 15.3

Note to self: CC50 at 72 h recorded for `Cc1cc(OCCCNc2ccc(Br)cc2)c2cc(Cl)ccc2n1` was 0.3

---

assay: Aqueous solubility of compound in NH4HCO3 at pH 9.1 incubated for 4 hrs by UHPLC-DAD analysis; type: physicochemical; conditions: NH4HCO3, pH 9.1
ENDPOINT LABEL: solubility at 4 h (µM)
Response body: numeric value in µM, unit text excluded.

Note to self: solubility at 4 h recorded for `CCc1ccc(NCCCOc2cc(C)nc3ccc(Cl)cc23)cc1` was 0.37

---

test: Elimination rate constant in male CF1 mouse at 300 mg/kg, po administered via gavage and measured after 8 hrs by UHPLC-DAD analysis; format: ADME, organism-based; details: in vivo
ENDPOINT LABEL: k el at 8 h (s⁻¹)
Response body: numeric value in s⁻¹, unit text excluded.

Note to self: k el at 8 h recorded for `CCc1ccc(NCCCOc2cc(C)nc3ccc(Br)cc23)cc1` was 4.44e-05

---

experiment: Drug concentration in male CF1 mouse plasma at 300 mg/kg, po administered via gavage and measured after 8 hrs by UHPLC-DAD analysis; type: ADME, organism-based
ENDPOINT LABEL: concentration at 8 h (µM)
Response body: numeric value in µM, unit text excluded.

Note to self: concentration at 8 h recorded for `CCc1ccc(NCCCOc2cc(C)nc3ccc(Br)cc23)cc1` was 9.8

---

assay: Chemical stability of compound in 0.1M NH4HCO3 solution at pH 9.1 assessed as parent compound remaining at 10 uM measured after 24 hrs by HPLC-MS/MS analysis; format: physicochemical; conditions: read-out: Stability
ENDPOINT LABEL: remaining at 24 h, 10 µM
Remember to quote the unit after the number.

Note to self: remaining at 24 h, 10 µM recorded for `CCc1ccc(NCCCOc2cc(C)nc3ccc(Br)cc23)cc1` was 6%

---

assay: Cytotoxicity against African green monkey Vero cells assessed as reduction in cell viability incubated for 72 hrs by MTT assay; assay type: toxicity, cell-based; conditions: chlorocebus sabaeus, Vero cells
Please go through the items and note down their CC50 at 72 h.

Note to self: CC50 at 72 h recorded for `COc1ccc2nc(C)cc(OCCCNc3ccc(Br)cc3)c2c1` was > 20 µM

Note to self: CC50 at 72 h recorded for `Cc1cc(OCCCNc2ccc(Br)cc2)c2cc(Cl)ccc2n1` was < 1 µM

Note to self: CC50 at 72 h recorded for `CCc1ccc(NCCCOc2cc(CC)nc3ccc(Br)cc23)cc1` was > 20 µM

Note to self: CC50 at 72 h recorded for `CCc1ccc(NCCCOc2cc(C)nc3ccc(Br)cc23)cc1` was > 20 µM

Note to self: CC50 at 72 h recorded for `COc1ccc2nc(C)cc(OCCCNc3ccc(I)cc3)c2c1` was 8.2 µM

---

Please go through the items and note down their CC50 at 72 h.
assay: Cytotoxicity against human HepG2 cells assessed as reduction in cell viability incubated for 72 hrs by MTT assay; assay type: toxicity, cell-based; conditions: HepG2 cells

Note to self: CC50 at 72 h recorded for `CCc1ccc(NCCCOc2cc(C)nc3ccc(Br)cc23)cc1` was > 20 µM

Note to self: CC50 at 72 h recorded for `Cc1cc(OCCCNc2ccc(Cl)cc2)c2cc(Br)ccc2n1` was > 20 µM

Note to self: CC50 at 72 h recorded for `CCc1ccc(NCCCOc2cc(CC)nc3ccc(Br)cc23)cc1` was > 20 µM
